Data origin, for the record: PubChem BioAssay AID2029

Below is a list of entries, each paired with its recorded GFP response vs DMSO value.
- Experimental details: modulators of CIT2-GFP expression in yeast, primary screen, S. cerevisiae, GFP fusion, multiplex flow cytometry, MLPCN library (AID 2029);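 further: ratio of well median GFP fluorescence to mean of DMSO wells on the plate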
- Details: S. cerevisiae CIT2-GFP strain, 3 h, at 10 µM, active compounds read high, 100 means same as DMSO wells
About 210 (0.066%) of roughly 320,000 compounds were called active. The list comes from a sample in which actives are over-represented; it also holds close analogues and randomly drawn compounds.
Quick reminder: number only, in %, skip the unit.

Exam item: Which GFP response vs DMSO value is on record for "CCN(CC)P(=O)(/C(Cl)=C\Nc1c(C)n(C)n(-c2ccccc2)c1=O)N(CC)CC" ?
Marked response: 113

Further cases:
Exam item: Requested read-out: GFP response vs DMSO. Entry: "COc1ccc(C)cc1Nc1n[n+](-c2ccccc2)c(-c2cccc(Cl)c2Cl)s1"
Marked response: 112

Exam item: Looking for the measured GFP response vs DMSO of "COc1ccc(NC(=O)CN(C)C(=O)c2n[nH]c3ccccc23)cc1" , can you help?
Marked response: 101

Exam item: If you can, please state the reported GFP response vs DMSO value of CCCCC(=O)N(c1ccc(OC)cc1)C1C=CS(=O)(=O)C1 (stereo unspecified) .
Marked response: 108

Exam item: Recorded GFP response vs DMSO for "CC(C)Oc1ccc(/C=N/NC(=O)c2nnn(-c3nonc3N)c2CN(C)C2CCCCC2)cc1" , please?
Marked response: 99.5

Exam item: Fill in: GFP response vs DMSO of "COc1ccccc1C(=O)NCCC(=O)NC1=NCCS1" is ___
Marked response: 105

###

- Experimental details: modulators of CIT2-GFP expression in yeast, primary screen, S. cerevisiae, GFP fusion, multiplex flow cytometry, MLPCN library (AID 2029);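 further: ratio of well median GFP fluorescence to mean of DMSO wells on the plate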
- Details: S. cerevisiae CIT2-GFP strain, 3 h, at 10 µM, 100 means same as DMSO wells
Among all 320,000 compounds or so, about 210 (0.066%) were called active.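 How the source made its calls: active means GFP response relative to DMSO above a set limit, near the screen mean plus 3 SD (cut at about 150% in these data); inconclusive means Fewer than 70 cells measured for a yeast strain; inactive means the rest.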 This excerpt belongs to a sample that is enriched for actives.
// one of t (active), f (inactive), no free text

Use the examples below as a reference point.
Exam item: Hi team, can someone confirm the assay call for "O=C(N/C(=C\c1ccc([N+](=O)[O-])cc1)C(=O)N1CCOCC1)c1cccc(Br)c1" ?
Marked response: f

Exam item: Per the records of this test, what outcome belongs to O=C(NCc1cc(F)cc(C(F)(F)F)c1)C1CCC(=O)N(C2CCCC2)C1 (centres undefined) ?
Marked response: f

New cases:
Exam item: # outcome recorded in this test, key = "CN(NS(=O)(=O)c1cccs1)c1ncc(C(F)(F)F)cc1Cl"
Marked response: t

Exam item: Kindly provide the recorded test outcome for the following molecule: COc1ccc(NC(=O)CC(NC(C)c2ccccc2)C(=O)O)cc1 (centres undefined)
Marked response: f
